Values compiled from the supplement of paper PMC11616607.

# Test system: COV362
# Assay Notes: drug sensitivity score (DSS) from 5-point dose-response viability curve (DSS (area-under-curve based score)); higher = more sensitive (stronger growth inhibition or killing); extreme values may be limits of the assay
# Condition Label: exposure time: 72 h; concentration range: 5 concentrations over 10,000-fold range
Measurement Kind: drug sensitivity score
Numbers only.

Consider the reported drug sensitivity score for these compounds:
Compound Smiles	Measurement Kind	Value Reported
Nc1cc(F)ccc1NC(=O)/C=C/c1cnn(C/C=C/c2ccccc2)c1	drug sensitivity score	0
FC(F)(F)c1ccc(/C=C/c2nc(COc3ccc(CCCCn4ccnn4)cc3)co2)cc1	drug sensitivity score	0
CC(C)(C)c1cnc(CSc2cnc(NC(=O)C3CCNCC3)s2)o1	drug sensitivity score	13.9
NC(=S)N/N=C/c1ncccc1N	drug sensitivity score	0.5
COc1cc2c(Oc3ccc4[nH]c(C)cc4c3F)ncnc2cc1OCCCN1CCCC1	drug sensitivity score	0

Provide drug sensitivity score for all items below, preserving their order.
1. O=C(/C=C/c1cccc(S(=O)(=O)Nc2ccccc2)c1)NO
2. CCc1nc(C(N)=O)c(Nc2ccc(N3CCC(N4CCN(C)CC4)CC3)c(OC)c2)nc1NC1CCOCC1
3. Cc1cc([C@@H](C)Nc2ccccc2C(=O)O)c2nc(N3CCOCC3)cc(=O)n2c1
4. O=C(O)C1(C(=O)O)CCC1.[NH2-].[NH2-].[Pt+2]

Result:
7.3
0.4
0
0
